# assayed_target: Tyrosine-protein kinase JAK3 (Homo sapiens, UniProt P52333)
# Sequence (P52333 whole entry): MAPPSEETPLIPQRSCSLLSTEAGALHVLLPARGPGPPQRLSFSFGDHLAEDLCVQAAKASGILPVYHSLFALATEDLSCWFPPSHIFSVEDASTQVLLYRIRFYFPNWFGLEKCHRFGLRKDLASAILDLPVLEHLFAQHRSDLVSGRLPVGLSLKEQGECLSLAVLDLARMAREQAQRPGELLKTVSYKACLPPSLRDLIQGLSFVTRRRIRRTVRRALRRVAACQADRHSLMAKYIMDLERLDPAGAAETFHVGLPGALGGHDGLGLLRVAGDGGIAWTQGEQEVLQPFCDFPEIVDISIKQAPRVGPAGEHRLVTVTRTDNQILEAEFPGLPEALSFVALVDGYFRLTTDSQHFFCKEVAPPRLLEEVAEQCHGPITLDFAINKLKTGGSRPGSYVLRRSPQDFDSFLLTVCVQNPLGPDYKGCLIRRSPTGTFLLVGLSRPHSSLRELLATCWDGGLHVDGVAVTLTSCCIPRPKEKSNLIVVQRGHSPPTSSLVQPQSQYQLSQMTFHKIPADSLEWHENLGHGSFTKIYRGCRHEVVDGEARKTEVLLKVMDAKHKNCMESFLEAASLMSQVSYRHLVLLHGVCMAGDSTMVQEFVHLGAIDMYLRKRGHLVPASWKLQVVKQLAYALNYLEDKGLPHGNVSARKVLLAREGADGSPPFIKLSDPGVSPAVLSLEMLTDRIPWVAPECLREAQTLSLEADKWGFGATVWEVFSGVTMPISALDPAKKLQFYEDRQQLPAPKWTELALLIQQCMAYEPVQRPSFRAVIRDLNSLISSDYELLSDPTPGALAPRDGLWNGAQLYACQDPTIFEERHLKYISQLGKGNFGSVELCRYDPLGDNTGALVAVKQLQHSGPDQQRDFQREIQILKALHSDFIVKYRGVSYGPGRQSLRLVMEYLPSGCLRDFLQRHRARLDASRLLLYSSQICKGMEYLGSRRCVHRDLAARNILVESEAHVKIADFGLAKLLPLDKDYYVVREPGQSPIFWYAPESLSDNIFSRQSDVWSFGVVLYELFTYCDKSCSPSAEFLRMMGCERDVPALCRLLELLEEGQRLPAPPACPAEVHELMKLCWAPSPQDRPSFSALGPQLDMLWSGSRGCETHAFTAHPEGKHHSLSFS
# experiment: Inhibition of recombinant N-terminal GST-tagged human JAK3 (781 to end residues) expressed in baculovirus infected Sf9 insect cells using Poly(4:1 Glu,Tyr) peptide substrate incubated for 60 mins by ADP-Glo luminescence assay
measured_property: IC50 (nM)

C=CC(=O)Nc1cccc(Nc2nc(Nc3ccc(OCCCN4CCOCC4)cc3)ncc2Cl)c1 | 0.83
C=CC(=O)Nc1cccc(Nc2nc(Nc3ccc(OC)c(OCCCN4CCOCC4)c3)ncc2Cl)c1 | 0.69
C=CC(=O)Nc1cccc(Nc2nc(Nc3ccc(OC)c(OCCCN4CCOCC4)c3)ncc2F)c1 | 0.95
C=CC(=O)Nc1cccc(Nc2nc(Nc3ccc(OCC(=O)N4CCOCC4)cc3)ncc2Cl)c1 | 1.39
C=CC(=O)Nc1cccc(Nc2nc(Nc3ccc(OCCCN4CCN(C)CC4)cc3C)ncc2Cl)c1 | 91.1

(a) C=CC(=O)Nc1cccc(Nc2nc(Nc3ccc(OCCCN4CCOCC4)c(OC)c3)ncc2Cl)c1
(b) C=CC(=O)Nc1cccc(Nc2nc(Nc3ccc(OCCCN4CCN(CC)CC4)c(Cl)c3)ncc2Cl)c1
(c) C=CC(=O)Nc1cccc(Nc2nc(Nc3ccc(OCC(=O)N4CCOCC4)c(OC)c3)ncc2F)c1
(d) C=CC(=O)Nc1cccc(Nc2nc(Nc3ccc(OCCOC)cc3)ncc2F)c1
Arrange items by their IC50 values in increasing order. # output: labels, in the requested order
b, a, c, d
(b: 0.91 nM, a: 6.77 nM, c: 11.2 nM, d: 22.5 nM)

This collection of values is drawn from ChEMBL document CHEMBL4251566.
